- Protocol text: Metabolic stability in mouse liver microsomes assessed as compound remaining after 1 hr by LC-MS/MS analysis
- Type: ADME
Readout kind: Percent remaining at 1 h (%)

molecular_string=Nc1ncnc2ccc(-c3cccc(Cl)c3)nc12 readout_kind="Percent remaining at 1 h" quantitative_readout=81
molecular_string=COc1cccc(-c2ccc3ncnc(N)c3c2)c1 readout_kind="Percent remaining at 1 h" quantitative_readout=82
molecular_string=Nc1ncnc2ccc(-c3cccc(Cl)c3)cc12 readout_kind="Percent remaining at 1 h" quantitative_readout=81
molecular_string=Nc1ncnc2ccc(-c3ccc(F)cc3)cc12 readout_kind="Percent remaining at 1 h" quantitative_readout=85
molecular_string=Nc1ncnc2ccc(-c3cc(F)cc(NC(=O)CN4CCCC4)c3)nc12 readout_kind="Percent remaining at 1 h" quantitative_readout=78
molecular_string=Nc1ncnc2ccc(-c3cc(F)cc(NCCN4CCCC4)c3)nc12 readout_kind="Percent remaining at 1 h" quantitative_readout=80

---

- Protocol text: Clearance in human liver microsomes by LC-MS/MS analysis
- Type: ADME
Readout kind: CLhep predicted (mL/min/kg)

Before answering, review these 2 worked examples.
molecular_string=Nc1ncnc2ccc(-c3ccccc3)cc12 readout_kind="CLhep predicted" quantitative_readout=20
molecular_string=Nc1ncnc2ccc(-c3ccc(F)cc3)cc12 readout_kind="CLhep predicted" quantitative_readout=18

A = COc1ccc(-c2ccc3ncnc(N)c3c2)cc1
B = Nc1ncnc2ccc(-c3cc(F)cc(NCCN4CCCC4)c3)nc12
IN: Dear colleague, could you let me know whether A or B has the lower recorded CLhep predicted? Thanks. Mark your answer with the label of the selected entry.
OUT: B
(B: 7 mL/min/kg, A: 19 mL/min/kg)

---

- Protocol text: Metabolic stability in mouse liver microsomes assessed as compound remaining after 1 hr by LC-MS/MS analysis
- Type: ADME
Readout kind: Percent remaining at 1 h (%)

molecular_string=CC(=O)Nc1cc(F)cc(-c2ccc3ncnc(N)c3c2)c1 quantitative_readout=68

I = COc1ccc(-c2ccc3ncnc(N)c3c2)cc1
II = Nc1ncnc2ccc(-c3ccnc(F)c3)nc12
IN: Please let me know which one, I or II , has a lower measured Percent remaining at 1 h value. Give the label under which the chosen entry appears.
OUT: II

---

- Protocol text: Volume of distribution at steady state in CD-1 mouse at 1 mg/kg, iv by LC/MS/MS analysis
- Assay type: ADME, organism-based
- Set-up: dose 1 mg/kg, route intravenous
- Test conditions: in vivo
Readout kind: Vd (L/kg)

P = Nc1ncnc2ccc(-c3ccnc(F)c3)nc12
Q = Nc1ncnc2ccc(-c3cc(F)cc(NC(=O)CN4CCCC4)c3)nc12
IN: Dear colleague, could you let me know whether P or Q has the lower recorded Vd? Thanks. Please indicate the selected item by its label.
OUT: P
(P: 0.6 L/kg, Q: 3.9 L/kg)

---

- Protocol text: Cmax in CD-1 mouse at 100 mg/kg, po by LC/MS/MS analysis
- Assay type: ADME, organism-based
- Parameters: dose 100 mg/kg, route oral
- Test conditions: in vivo
Readout kind: Cmax (µM)
Give your result in µM as a bare value.

IN: Fill in the blank: the reported Cmax of Nc1ncnc2ccc(-c3ccnc(F)c3)nc12 is ____.
OUT: 7.65

---

- Protocol text: AUC (0 to infinity) in CD-1 mouse at 1 mg/kg, iv by LC/MS/MS analysis
- Type: ADME, organism-based
- Set-up: time infinity, dose 1 mg/kg, route intravenous
- Test conditions: plasma
Readout kind: AUC(0-inf) (µM·h)

a = Nc1ncnc2ccc(-c3cc(F)cc(NC(=O)CN4CCCC4)c3)nc12
b = Nc1ncnc2ccc(-c3ccnc(F)c3)nc12
IN: Select one. Lower AUC(0-inf): a or b Refer to your chosen entry by its label in the reply.
OUT: a
